assay: osmotic lysis modulators in infected erythrocytes, primary screen, PSAC antagonist project, cell-based, P. falciparum Indochina, OD700, 3 h (AID 1156); settings: higher = more signal, called active from +8 up or from −8 down
Binary call on z-score: 1.0 from 0.2 upward, 0.0 beneath that.

COMPOUND	ANSWER LABEL
CCCCCCCCCCC(O)C1C=CC2C(=O)N(C)C(=O)C2N1N1CCCCC1 (stereo unspecified)	1.0
CCCCC(=C=CC[C@@H](O)c1ccc(OCCO)cc1)C[C@@H](O)c1ccccn1	1.0
O=C1NC(=O)C2C1C=CC(C(O)c1ccc(F)cc1)N2Nc1ccccn1 (stereo unspecified)	0.0
C=CCC(OC(C)=O)[C@@H]1[C@@H](N(Cc2cc3ccccc3o2)C(=O)c2cccc3ccccc23)c2cc(OCCCO)ccc2N1C(=O)c1ccc2ccccc2c1 (stereo partly specified)	1.0
Cc1ccc(S[C@]2(C(=O)NC3CC3)CC(=O)N(Cc3cc(C(F)(F)F)cc(C(F)(F)F)c3)[C@@H]2c2ccc(CO)cc2I)cc1	1.0
COc1ccc([Si](C)(C)[C@H]2[C@H](CCn3cc([C@H](O)c4ccccc4)nn3)O[C@@]3(C(=O)N(c4ccccc4)c4ccccc43)[C@@H]2C)cc1	1.0
CO[C@H]1O[C@H](CO)[C@@H](OC(=O)Nc2ccccc2)[C@@H]2OC(=O)[C@H](Cc3ccccc3)C/C=C/C[C@@H](Cc3ccccc3)C(=O)O[C@@H]12	0.0
COc1ccc(CCNC(=O)[C@@H]2c3ccccc3C(=O)N(CC34CC5CC(CC(C5)C3)C4)[C@H]2c2ccc(CO)cc2)cc1	1.0
CC(C)(C)OC(=O)CC[C@]1(C(=O)N2CCOCC2)N=C(c2ccc(OCCCO)cc2)O[C@H]1c1ccccc1CN=[N+]=[N-]	1.0
C[N+](C)(C)CCCCCCNC(=O)[C@H]1C[C@H]2C(=O)NCC(=O)N2[C@H]1c1cccc(OCCO)c1	0.0
CC(=O)n1cc(C(O)C2C=CC3C(=O)N(c4ccccc4)C(=O)C3N2Nc2ccccc2F)c2ccccc21 (stereo unspecified)	0.0
CCOC(=O)C[C@H]1[C@H](OC(=O)c2ccc(-c3ccccc3)cc2)[C@@H](NC(=O)c2ccc3ccccc3c2)c2cc(OCCCO)ccc2N1C(=O)c1ccccc1	0.0
C[C@H]1C2[C@H](Cc3ccccc3)NC(=O)[C@]23C(=O)NCC(=O)N2CCC[C@H]2C(=O)NC/C=C\C/C=C/C3[C@@H]2O[C@]12C (stereo partly specified)	0.0
NCCCC[C@@H]1NC(=O)[C@H]2C[C@@H](C(=O)NCc3ccc(F)cc3)[C@@H](c3ccc(O)cc3)N2C1=O	0.0
Cc1ccccc1C(O)C1C=CC2C(=O)N(c3ccccc3)C(=O)C2N1Nc1ccccc1F (stereo unspecified)	1.0
CC(C)C(=C=CC[C@@H](O)c1ccccc1OCCO)C[C@@H](O)c1cc(Cl)cc(Cl)c1O	0.0
C#CCN=C(N)N	0.0
COC(=O)[C@@]1(CCS(=O)(=O)c2ccccc2)N=C(c2ccc(OCCCO)cc2)O[C@H]1c1ccccc1N=[N+]=[N-]	1.0
C=CCC(OC(C)=O)[C@@H]1[C@@H](N(Cc2ccc(-c3ccccc3)cc2)C(=O)c2ccc(C)cc2)c2cc(OCCCO)ccc2N1C(=O)c1ccc2ccccc2c1 (stereo partly specified)	0.0
C=CCN1C(=O)[C@]2(O[C@H](CCn3cc([C@H](O)c4ccccc4)nn3)[C@@H]([Si](C)(C)c3ccc(OC)cc3)[C@@H]2C)c2cc(N3C(=O)c4cccc5cccc3c45)ccc21	1.0
C[C@]1(C(=O)NCC(F)(F)F)c2ccccc2C(=O)N(Cc2ccc(OC(F)(F)F)cc2)[C@H]1c1ccc(CO)cc1	1.0
O=C1C2C=CC(C(O)c3ccc([N+](=O)[O-])cc3)N(Nc3ccccc3)C2C(=O)N1c1ccccc1 (stereo unspecified)	1.0
C=C(CCCC)C(=O)CC[C@H](OC(C)=O)c1ccccc1OCCO	1.0
[N-]=[N+]=NCc1ccccc1[C@@H]1OC(c2ccc(OCCCO)cc2)=N[C@]1(Cc1ccccc1)C(=O)NCc1ccccc1	1.0
[N-]=[N+]=NCc1ccccc1C[C@]1(C(=O)NCc2ccccc2)N=C(c2ccc(OCCCO)cc2)O[C@H]1c1ccccc1CN=[N+]=[N-]	1.0
[N-]=[N+]=NCc1ccccc1C[C@]1(C(=O)N2CCOCC2)N=C(c2ccc(OCCCO)cc2)O[C@H]1c1ccccc1CN=[N+]=[N-]	1.0
CCOC(=O)C1=CC[C@@H](c2ccccc2Cl)N(S(=O)(=O)c2ccc(C)cc2)[C@H]1c1cccc(OC)c1	0.0
C=C(CCCC)/C(=C/C[C@H](OC(C)=O)c1cccc(OCCO)c1)c1cc(C(=O)OC)ccc1OC	1.0
CCOC(=O)C1=CC[C@@H](c2ccccc2)N(S(=O)(=O)c2ccc(C)cc2)[C@H]1C#N	0.0
CCCC[C@@H]1C[C@H]1[C@@H](NC(=O)Cc1ccccc1)c1ccc(Cl)cc1	1.0
CCCCN1CC=CC23O[C@@H]4/C=C\CCC(C)OC(=O)C4[C@H]2C(=O)N(C(C)CO)[C@@H]3C1=O (stereo partly specified)	1.0

----------
assay: binders of probe aFST on microarray, primary screen, stem cell growth factor project, biochemical, small-molecule microarray, fluorescence 635/667 (AID 1086); conditions: higher = more signal;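 note: score merges 667 nm fluorescence with signal-to-noise of each printed compound spot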
composite z-score values by entry

COMPOUND SMILES	composite z-score
COCCOC(=O)N1C(=O)[C@@]2(c3cc(C#CCC(C(=O)OC)C(=O)OC)ccc31)[C@H](c1ccc(OCCO)cc1)N1[C@H](c3ccccc3)[C@H](c3ccccc3)OC(=O)[C@H]1[C@@H]2C(=O)N1CCCCCCC1	3.32
CN(C)CCCC[C@@H]1NC(=O)[C@@H]2C[C@H](C(=O)NCCCCCCNC(=O)CS)[C@H](c3cccc(OCCO)c3)N2C1=O	0.123
NCCCC[C@@H]1NC(=O)[C@H]2C[C@@H](C(=O)NCc3ccc(F)cc3)[C@@H](c3ccc(O)cc3)N2C1=O	1.75
CCCCC(=C=CC[C@@H](O)c1ccc(OCCO)cc1)C[C@@H](O)c1ccccn1	0.111

----------
tested on: Inhibin beta A chain (activin A); assay: INHBA (activin A) binders on microarrays, primary screen, biochemical, small-molecule microarray, 635 nm fluorescence scan (AID 1107); conditions: small-molecule microarray binding, higher = more signal;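 note: mouse activin A protein probed at 4.33 µg/mL on printed slides; score merges bound-protein fluorescence near 667 nm with spot signal-to-noise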
composite z-score values by entry

MOLECULE	composite z-score
COCC1=C([C@H](O)CCc2ccccc2)[C@H](CO)n2c(=O)n(-c3ccccc3)c(=O)n2C1	0.785
C=CCC(OC(C)=O)[C@@H]1[C@@H](N(Cc2ccc(-c3cccc(C(F)(F)F)c3)o2)C(=O)c2cccc3ccccc23)c2cc(OCCCO)ccc2N1C(=O)c1ccc2ccccc2c1 (some centres undefined)	1.2
COc1ccc(CCNC(=O)[C@@]2(Sc3ccc(C)cc3)CC(=O)N(C(C)C)[C@@H]2c2ccc(CO)cc2)cc1	-0.87
COCC(=C=CC[C@@H](O)c1cccc(OCCO)c1)C[C@@H](O)COCc1ccccc1	0.717

----------
assay: binders of probe aHhip on microarray, primary screen, stem cell growth factor project, biochemical, small-molecule microarray, fluorescence 635/667 (AID 1087); details: higher = more signal;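 note: score merges spot fluorescence at 667nm with spot signal to noise ratio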
composite z-score values by entry
TEST READOUT: composite z-score

COMPOUND	REPORTED VALUE
CC(C)[C@@H](C(=O)O)n1cc(-c2ccccc2)nn1	-0.0645
COCCOC(=O)N1C(=O)[C@@]2(c3cc(C#Cc4ccc(OC)cc4)ccc31)[C@H](C(=O)Nc1nc3ccccc3s1)[C@H]1C(=O)O[C@H](c3ccccc3)[C@H](c3ccccc3)N1[C@@H]2c1ccccc1OCCO	-0.283
CC(C)C[C@H]1NC(=O)[C@@]23C(=O)N[C@@H](Cc4ccccc4)C2[C@H](C)[C@@]2(C)O[C@H]2C3/C=C/C/C=C\CNC(=O)[C@@H]2CCCN2C1=O (stereo partly drawn)	-0.0645

----------
z-score values by entry
experiment: CREB reporter modulators under forskolin, primary screen, cell-based, PC12, CRE-LacZ reporter, forskolin-stimulated (AID 1146); details: luminescence, 4.5 h, higher = more signal, called active from +8 up or from −8 down;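 note: PC12 cells with 6xCRE LacZ reporter stimulated by forskolin 10 µM; beta-galactosidase reporter signal reflecting CREB driven transcription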
TEST READOUT: z-score

COMPOUND	TEST READOUT	REPORTED VALUE
CC(=O)NCCCC[C@@H]1NC(=O)[C@H]2C[C@@H](C(=O)NCCCCCC[N+](C)(C)C)[C@@H](c3ccc(O)cc3)N2C1=O	z-score	-0.665
C=CCC(OC(C)=O)[C@@H]1[C@@H](N(Cc2ccc(-c3cccc(C(F)(F)F)c3)o2)C(=O)c2cccc3ccccc23)c2cc(OCCCO)ccc2N1C(=O)c1ccc2ccccc2c1 (some centres undefined)	z-score	0.942
CC(C)=CCN(C(=O)C#Cc1ccccc1)[C@H](CO)c1ccccc1	z-score	-4.52
CN1C(=O)C2C=CC(C(O)c3ccc(-c4ccccc4)s3)N(Nc3ccccc3)C2C1=O (centres undefined)	z-score	-0.666

----------
biological target: Dickkopf-related protein 1 (Homo sapiens); experiment: DKK1 binders on small-molecule microarrays, primary screen, biochemical, small-molecule microarray, 635 nm fluorescence scan (AID 1106); details: DKK1 binding, higher = more signal;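 note: score merges emission near 667 nm with signal to noise over three replicate slides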
Binary call on composite z-score: 1 (yes) from 0.7 upward, 0 (no) beneath that.

COMPOUND SMILES	ANSWER LABEL
COCCOC(=O)N1C(=O)[C@@]2(c3cc(C#CCC(C(=O)OC)C(=O)OC)ccc31)[C@H](C(=O)N1CCc3cc(OC)c(OC)cc3C1)[C@H]1C(=O)O[C@H](c3ccccc3)[C@H](c3ccccc3)N1[C@@H]2c1ccc(O)cc1	1 (yes)
CN(C)CCCCNC(=O)[C@H]1C[C@H]2C(=O)N[C@@H](Cc3ccccc3)C(=O)N2[C@H]1c1cccc(OCCO)c1	0 (no)
C=C(CCCC)C(=O)CC[C@H](OC(C)=O)c1ccccc1OCCO	0 (no)
COC(=O)[C@@H]1N=C(c2ccc(OCCCO)cc2)O[C@@H]1c1ccccc1CN=[N+]=[N-]	0 (no)
C=CC[C@]1(C(=O)NCCCOC)N=C(c2ccc(OCCCO)cc2)O[C@H]1c1ccccc1	0 (no)
COCCOC(=O)N1C(=O)[C@@]2(c3cc(C#Cc4ccc(OC)cc4)ccc31)[C@H](c1ccc(OCCO)cc1)N1[C@H](c3ccccc3)[C@H](c3ccccc3)OC(=O)[C@H]1[C@@H]2C(=O)N1CCCCCCC1	1 (yes)
